Hello, the source for this data is ChEMBL document CHEMBL1151762, in case you need it.

Listed next: entries and their corresponding CC50.
assay: Cytotoxicity against human wild type CEM/0 cells; assay type: cell-based; details: CCRF-CEM
Outcome Measure: CC50 (µM)

• Cc1cn([C@H]2C=C[C@@H](CO[P@]3(=O)OCc4cc(C(OC(=O)C(C)C)OC(=O)C(C)C)cc(C(C)(C)C)c4O3)O2)c(=O)[nH]c1=O = 14
• Cc1cn([C@H]2C=C[C@@H](CO[P@@]3(=O)OCc4cc(C(OC(=O)C(C)C)OC(=O)C(C)C)cc(C(C)(C)C)c4O3)O2)c(=O)[nH]c1=O = 40
• C=C(OC(C)=O)c1cc2c(c(C(C)(C)C)c1)O[P@@](=O)(OC[C@@H]1C=C[C@H](n3cc(C)c(=O)[nH]c3=O)O1)OC2 = 67

----------
Catalogue of molecules with associated half-life
experiment: Chemical stability assessed as half life of hydrolysis in CEM cell extracts at pH 6.9; assay type: physicochemical, CCRF-CEM; conditions: human
Outcome Measure: half-life (min)

* C=C(OC(C)=O)c1cc2c(c(C(C)(C)C)c1)O[P@@](=O)(OC[C@@H]1C=C[C@H](n3cc(C)c(=O)[nH]c3=O)O1)OC2 | 2.4
* C=C(OC(C)=O)c1cc(C)c2c(c1)COP(=O)(OC[C@@H]1C=C[C@H](n3cc(C)c(=O)[nH]c3=O)O1)O2 (stereo not given in full) | 4.2
* C=C(OC(C)=O)c1ccc2c(c1)COP(=O)(OC[C@@H]1C=C[C@H](n3cc(C)c(=O)[nH]c3=O)O1)O2 (stereo not given in full) | 7.8
* C=C(OC(C)=O)c1cc2c(c(C(C)(C)C)c1)O[P@](=O)(OC[C@@H]1C=C[C@H](n3cc(C)c(=O)[nH]c3=O)O1)OC2 | 2.4
* C=C(OC(C)=O)c1cc2c(c(C(C)(C)C)c1)OP(=O)(OC[C@@H]1C=C[C@H](n3cc(C)c(=O)[nH]c3=O)O1)OC2 (stereo not given in full) | 2.4

----------
experiment: Chemical stability assessed as half life of hydrolysis in 25 mM phosphate buffer at pH 7.3; format: physicochemical
Listing: half-life of selected molecules
Outcome Measure: half-life

- C=C(OC(C)=O)c1ccc2c(c1)COP(=O)(OC[C@@H]1C=C[C@H](n3cc(C)c(=O)[nH]c3=O)O1)O2 (stereo partly drawn): 1.4 h
- CC(=O)c1cc2c(c(C(C)(C)C)c1)OP(=O)(OC[C@@H]1C=C[C@H](n3cc(C)c(=O)[nH]c3=O)O1)OC2 (stereo partly drawn): 2.3 h
- CC(=O)c1ccc2c(c1)COP(=O)(OC[C@@H]1C=C[C@H](n3cc(C)c(=O)[nH]c3=O)O1)O2 (stereo partly drawn): 0.3 h

----------
assay: Chemical stability assessed as half life of hydrolysis in RPMI-1640 culture medium at pH 7.6 in presence 10% heat-inactivated fetal calf serum; type: physicochemical
half-life: recorded values
Outcome Measure: half-life (h)

• CC(=O)c1cc2c(c(C(C)(C)C)c1)OP(=O)(OC[C@@H]1C=C[C@H](n3cc(C)c(=O)[nH]c3=O)O1)OC2 (stereo partly drawn) = 2.5
• C=C(OC(C)=O)c1cc(C)c2c(c1)COP(=O)(OC[C@@H]1C=C[C@H](n3cc(C)c(=O)[nH]c3=O)O1)O2 (stereo partly drawn) = 1.8
• C=C(OC(C)=O)c1cc2c(c(C(C)(C)C)c1)O[P@@](=O)(OC[C@@H]1C=C[C@H](n3cc(C)c(=O)[nH]c3=O)O1)OC2 = 3.7

----------
tested on: Human immunodeficiency virus 2; experiment: Antiviral activity against HIV2 replication in human wild type CEM/0 cells assessed as virus-induced cytopathic effect; assay type: functional, organism-based; conditions: Human immunodeficiency virus 2, CCRF-CEM
Outcome Measure: EC50 (nM)

- C=C(OC(C)=O)c1cc2c(c(C(C)(C)C)c1)OP(=O)(OC[C@@H]1C=C[C@H](n3cc(C)c(=O)[nH]c3=O)O1)OC2 (stereo partly drawn): 880
- CC(=O)c1ccc2c(c1)COP(=O)(OC[C@@H]1C=C[C@H](n3cc(C)c(=O)[nH]c3=O)O1)O2 (stereo partly drawn): 3000
- C=C(OC(C)=O)c1cc2c(c(C(C)(C)C)c1)O[P@@](=O)(OC[C@@H]1C=C[C@H](n3cc(C)c(=O)[nH]c3=O)O1)OC2: 1100

----------
test: Cytotoxicity against human wild type CEM/0 cells; format: cell-based; conditions: CCRF-CEM
Outcome Measure: CC50 (µM)

- CC(=O)OC(OC(C)=O)c1cc2c(c(C(C)(C)C)c1)O[P@](=O)(OC[C@@H]1C=C[C@H](n3cc(C)c(=O)[nH]c3=O)O1)OC2: 17
- C=C(OC(C)=O)c1cc2c(c(C(C)(C)C)c1)OP(=O)(OC[C@@H]1C=C[C@H](n3cc(C)c(=O)[nH]c3=O)O1)OC2 (some centres not stated): 49
- Cc1cn([C@H]2C=C[C@@H](CO)O2)c(=O)[nH]c1=O [STAVUDINE]: 220
- C=C(OC(C)=O)c1cc(C)c2c(c1)COP(=O)(OC[C@@H]1C=C[C@H](n3cc(C)c(=O)[nH]c3=O)O1)O2 (some centres not stated): 18
- Cc1cn([C@H]2C=C[C@@H](CO[P@@]3(=O)OCc4cc(C=O)cc(C(C)(C)C)c4O3)O2)c(=O)[nH]c1=O: 41
- Cc1cn([C@H]2C=C[C@@H](CO[P@]3(=O)OCc4cc(C=O)cc(C(C)(C)C)c4O3)O2)c(=O)[nH]c1=O: 27
- C=C(OC(C)=O)c1ccc2c(c1)COP(=O)(OC[C@@H]1C=C[C@H](n3cc(C)c(=O)[nH]c3=O)O1)O2 (some centres not stated): 111

----------
experiment: Chemical stability assessed as half life of hydrolysis in RPMI-1640 culture medium at pH 7.6 in presence 10% heat-inactivated fetal calf serum; assay type: physicochemical
Outcome Measure: log10 half-life (log10 of the value in h)

• CC(=O)c1cc2c(c(C(C)(C)C)c1)O[P@](=O)(OC[C@@H]1C=C[C@H](n3cc(C)c(=O)[nH]c3=O)O1)OC2 = 0.51
• CC(=O)c1ccc2c(c1)COP(=O)(OC[C@@H]1C=C[C@H](n3cc(C)c(=O)[nH]c3=O)O1)O2 (some centres not stated) = -0.22
• CC(=O)c1cc(C)c2c(c1)COP(=O)(OC[C@@H]1C=C[C@H](n3cc(C)c(=O)[nH]c3=O)O1)O2 (some centres not stated) = 0.00
• C=C(OC(C)=O)c1cc2c(c(C(C)(C)C)c1)O[P@](=O)(OC[C@@H]1C=C[C@H](n3cc(C)c(=O)[nH]c3=O)O1)OC2 = 0.88
• CC(=O)c1cc2c(c(C(C)(C)C)c1)O[P@@](=O)(OC[C@@H]1C=C[C@H](n3cc(C)c(=O)[nH]c3=O)O1)OC2 = 0.30
• C=C(OC(C)=O)c1ccc2c(c1)COP(=O)(OC[C@@H]1C=C[C@H](n3cc(C)c(=O)[nH]c3=O)O1)O2 (some centres not stated) = 0.00
• C=C(OC(C)=O)c1cc2c(c(C(C)(C)C)c1)OP(=O)(OC[C@@H]1C=C[C@H](n3cc(C)c(=O)[nH]c3=O)O1)OC2 (some centres not stated) = 0.72

----------
assay: Chemical stability assessed as half life of hydrolysis in 25 mM phosphate buffer at pH 7.3; type: physicochemical
Listed here: items and their measured half-life.
Outcome Measure: half-life (h)

- CC(=O)c1cc2c(c(C(C)(C)C)c1)O[P@@](=O)(OC[C@@H]1C=C[C@H](n3cc(C)c(=O)[nH]c3=O)O1)OC2: 2.3
- C=C(OC(C)=O)c1cc2c(c(C(C)(C)C)c1)O[P@](=O)(OC[C@@H]1C=C[C@H](n3cc(C)c(=O)[nH]c3=O)O1)OC2: 13.5
- C=C(OC(C)=O)c1cc2c(c(C(C)(C)C)c1)OP(=O)(OC[C@@H]1C=C[C@H](n3cc(C)c(=O)[nH]c3=O)O1)OC2 (some centres not stated): 12.3
- CC(=O)c1cc(C)c2c(c1)COP(=O)(OC[C@@H]1C=C[C@H](n3cc(C)c(=O)[nH]c3=O)O1)O2 (some centres not stated): 0.75
- C=C(OC(C)=O)c1cc2c(c(C(C)(C)C)c1)O[P@@](=O)(OC[C@@H]1C=C[C@H](n3cc(C)c(=O)[nH]c3=O)O1)OC2: 11.3
- CC(=O)c1cc2c(c(C(C)(C)C)c1)O[P@](=O)(OC[C@@H]1C=C[C@H](n3cc(C)c(=O)[nH]c3=O)O1)OC2: 2.3
- C=C(OC(C)=O)c1cc(C)c2c(c1)COP(=O)(OC[C@@H]1C=C[C@H](n3cc(C)c(=O)[nH]c3=O)O1)O2 (some centres not stated): 6.1
